Experiment: log P by HPLC on a reversed-phase column (C 18), EEC Directive 79/831 Annex V.A8
Format: physicochemical
Details: acidic range, pH 2.7, 0.1% aqueous formic acid/acetonitrile, 55° C.
measurementName: LOGP_HCOOH

CCSc1c(-c2nc3cc(C(F)(F)F)ccc3n2C)nc2cccc(C)n12 | 3.35
CCSc1c(-c2nc3cc(C(F)(F)F)ncc3n2C)nc2ccc(Cl)cn12 | 3.59
CCS(=O)(=O)c1c(-c2nc3cc(C(F)(F)F)ccc3n2C)nc2ccc(Cl)cn12 | 3.34
CCS(=O)(=O)c1c(-c2nc3cc(C(F)(F)F)ncc3n2C)nc2cc(C(F)(F)F)ccn12 | 3.00
CCSc1cccn2c(SCC)c(-c3nc4cc(C(F)(F)F)ncc4n3C)nc12 | 3.99
CCS(=O)(=O)c1c(-c2nc3cc(C(F)(F)F)cnc3n2C)nc2ccc(C)cn12 | 2.84
CC[S+]([O-])c1c(-c2nc3cc(C(F)(F)F)ncc3n2C)nc2ccc(C(F)(F)F)cn12 (stereo not shown) | 3.25
CC[S+]([O-])c1c(-c2nc3cc(C(F)(F)F)ncc3n2C)nc2cccc(C(F)(F)F)n12 (stereo not shown) | 2.30
CCSc1c(-c2nc3cc(C(F)(F)F)ncc3n2C)nc2cccc(C(F)(F)F)n12 | 3.50
CCS(=O)(=O)c1c(-c2nc3cc(C(F)(F)F)cnc3n2C)nc2ccccn12 | 2.58
CCS(=O)(=O)c1c(-c2nc3cc(C(F)(F)F)cnc3s2)nc2ccccn12 | 3.21
CCSc1c(-c2nc3cc(C(F)(F)F)cnc3o2)nc2ccc(C(F)(F)F)cn12 | 4.14
CCS(=O)(=O)c1c(-c2nc3cc(C(F)(F)F)ncc3n2C)nc2cccc(C(F)(F)F)n12 | 2.69
CCS(=O)(=O)c1c(-c2nc3cc(C(F)(F)F)ncc3n2C)nc2ccc(C(F)(F)F)cn12 | 3.09
CCS(=O)(=O)c1c(-c2nc3cc(C(F)(F)F)ccc3n2C)nc2ccc(C)cn12 | 2.98
CCS(=O)(=O)c1c(-c2nc3cc(C(F)(F)F)ccc3o2)nc2ccccn12 | 2.92
